- System: LCK;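 note: KINOMEscan kinase panel screen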
- assaySetup: concentration: 1 μM,replicates: in singlicate; n = 1
Reported %Inh values for a set of compounds
Enter the number, and then the unit.

Guide cases for %Inh, answers given:
QUERY: Please give the documented %Inh of Cn1cc(-c2cccc3c(N)c(C(N)=O)nnc23)cn1
RESULT: 5%

QUERY: Answer with the recorded %Inh of OCCn1cc(-c2cnc3nnn(Cc4ccc5ncccc5c4)c3n2)cn1 only.
RESULT: 0%

Continuing:
QUERY: Check the records and state %Inh for COc1cc2ncn(-c3cc(OCC4CCCCC4)c(C(N)=O)s3)c2cc1OC [GSK204559]
RESULT: 37%

QUERY: Tell me its %Inh given Cl.Nc1n[nH]c2cc(-c3ccccn3)ccc12 [GSK2189892] as the entry.
RESULT: 12%

QUERY: Identify %Inh associated with the compound CCNCC(Cc1ccccc1)NC(=O)c1cc(Br)c(-c2ccnc3[nH]ccc23)s1.Cl.Cl (centres unmarked) [GSK1383280]
RESULT: 11%

QUERY: Provide one value: measured %Inh of CSc1nccc(-c2c(-c3ccc(F)cc3)ncn2CCCN2CCOCC2)n1.Cl [SB-217146]
RESULT: 0%

QUERY: Consider the compound Cl.Cl.NC[C@H](CC1CCCCC1)NC(=O)c1ccc(-c2ccnc3[nH]ccc23)s1 [GSK1581428] and give its recorded %Inh.
RESULT: 37%

QUERY: State, in one line, measured %Inh of C[C@@H]1CCN(C(=O)N2CCCC2)C[C@@H]1N(C)c1ncnc2[nH]ccc12
RESULT: 41%
